Origin of measurements: PubChem BioAssay (Tox21)

- Method description: qHTS assay to identify small molecule antagonists of the thyroid receptor (TR) signaling pathway - cell viability counter screen (AID 743064); further: nearly all actives have a fitted effect of over 50% in size
- Condition context: GH3.TRE-Luc viability, CellTiter-Fluor, 24 h; series mostly up to 70.3 µM
Results filed as inconclusive are left out. Calls of active or inactive are those of the source. The call rests on the fitted dose curve; in most records, active means well fitted cell-killing curve with a large enough effect in the repeat runs; inconclusive means weak or mixed curves, or effect the other way; inactive means no such curve, though single readings can be large or run the other way.
Classes used: active, inactive

1. O=C(CCCN1CCN2CCCC2C1)c1ccc(F)cc1 (centres undefined)	inactive
2. COc1cccc2c1[C@@H]1CN(CCCCn3c(=O)[nH]c4c(sc5ncc(-c6ccccc6)nc54)c3=O)C[C@@H]1CO2	active
3. C/C(=C\C(=O)OCCCCCCCCC(=O)O)C[C@@H]1OC[C@H](C[C@@H]2O[C@H]2[C@@H](C)[C@H](C)O)[C@@H](O)[C@H]1O	inactive
4. COc1c(O)cc2c(c1O)[C@@H]1O[C@H](CO)[C@@H](O)[C@H](O)[C@H]1OC2=O	inactive
